The measured values listed here are drawn from the supplement of paper PMC6555819.

test system: LXRa:RXRa (NR concentration 270 nM, RXRa partner concentration 90 nM); test: PBM binding z-score (relative to random genomic background probes); higher = stronger binding; sequences stand for … in GC…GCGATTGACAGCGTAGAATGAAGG
Answer False if PBM binding z-score is under 0.7, and True if it is 0.7 or more.

Use these answered entries as a reference point.
TCGAGTAGGTTAGTTGGGGCATTCAGCCAACATA = False
GCTTATAGGTAATACAAGGTGAAAGTCCGATTGT = True
CCTAGTTGGTCAAGGTCACACGCGCTATAGGTAC = True
GCGACTGGGGCAGCAGCAGGTTACCATAACTTAA = False
ACAGACAGGTGAGTTAAGGTAACTCAGCTGGACG = False

INPUT: Evaluate ACTATTAGATGAGACGAGGGCAACCGATAGGTTG : PBM binding z-score at minimum 0.7?
OUTPUT: False

###

system: THRa:RXRa (NR concentration 90 nM, RXRa partner concentration 90 nM); assay: PBM binding z-score (relative to random genomic background probes); higher = stronger binding; sequences stand for … in GC…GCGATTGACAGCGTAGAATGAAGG
Values of PBM binding z-score greater than or equal to 3 map to 1 (yes); values below map to 0 (no).

Use these answered entries as a reference point.
CGAACTAGGTCATCCAGGACAGAGAATACATTGA = 1 (yes)
GCTAGTTGGTCAGTAAAAGGTCACACGCCGGTCG = 1 (yes)
CCGAGTAGGTTATGGTGCATTCAGGCAACGGTGA = 0 (no)
CCTCGGAGGAGAACAGGAGGTCAGAGCTGCCAGA = 0 (no)
AAAACGAGGGCACGCTGAGTTGATAGCAGAGTAG = 0 (no)

Please find the next sequence below.
INPUT: PBM binding z-score >= 3 for CAAACTAGGTCAAGAGATCAAAGTCCGCTTCCCG ?
OUTPUT: 0 (no)

###

system: RARa:RXR (NR concentration 270 nM, RXRa partner concentration 90 nM); test: PBM binding z-score (relative to random genomic background probes); higher = stronger binding; sequences stand for … in GC…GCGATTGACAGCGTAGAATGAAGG
Short version: PBM binding z-score at least 2 is label 1, less is label 0.

Use the examples below as a reference point.
TAGCCTATGTCATGCGGGCCAGTATAGTGTCGGC = label 0
CCGACTGGGGCAAGGTTGCCATAACGCACAGCCA = label 0
AGAATGAGGTTATTAAGATCAGGTAATTGCGGTC = label 0

INPUT: Does CCTCGGAGGACAACAGGTGGTCAGAGCTGCCAGA have a reported PBM binding z-score of at least 2?
OUTPUT: label 0

INPUT: In plain terms: is recorded PBM binding z-score at least 2 for CAAACTAGGACAAAGGTCAAAGTCGAGCCAACCA ?
OUTPUT: label 1

INPUT: Could you verify whether the entry ACTATTAGTTGAGCCGAGGGCAACCGATAGGTTG shows PBM binding z-score of no less than 2?
OUTPUT: label 0

INPUT: Record ACTAGGAGGCCAAGTTTGGGTCACTCAAACAAAG ; criterion: PBM binding z-score no lower than 2. Met?
OUTPUT: label 0

INPUT: Hi, just wondering whether TAGCCTATGTCAGATCGGGCCAGTATACGCTATA shows PBM binding z-score of 2 or higher.
OUTPUT: label 0

INPUT: Record ATATGTAGGTTACGGGTCATTCAGGTTGGTTCGC ; criterion: PBM binding z-score no lower than 2. Met?
OUTPUT: label 1

INPUT: Please indicate if the recorded PBM binding z-score for CCTTAAGGGTCACTCCAGGTTATAGCATCGGAGT meets or exceeds 2.
OUTPUT: label 1
